- Test Protocol: in vivo
- Parameters: species or system white mice
- Cond: mouse, ip, 900 mg/kg
Measurement Label: survival at 96 h (%)
Supply the numeric figure in %, leaving out any unit text.

>>> df
                                   molecule  experimental_result
0  CC(=O)Nc1ccc(O)cc1 [Acetaminophen, 4-hydroxyacetanilide, reference compound]                   20

The record that follows has no survival at 96 h shown yet.
# survival at 96 h of CC(=O)Nc1cccc(O)c1 [3-hydroxyacetanilide] = 91

Ref: patent US4238508A
